- target: BTK enzyme (hBTK, full-length recombinant) (Homo sapiens (Human))
- Sequence (Q06187 whole entry): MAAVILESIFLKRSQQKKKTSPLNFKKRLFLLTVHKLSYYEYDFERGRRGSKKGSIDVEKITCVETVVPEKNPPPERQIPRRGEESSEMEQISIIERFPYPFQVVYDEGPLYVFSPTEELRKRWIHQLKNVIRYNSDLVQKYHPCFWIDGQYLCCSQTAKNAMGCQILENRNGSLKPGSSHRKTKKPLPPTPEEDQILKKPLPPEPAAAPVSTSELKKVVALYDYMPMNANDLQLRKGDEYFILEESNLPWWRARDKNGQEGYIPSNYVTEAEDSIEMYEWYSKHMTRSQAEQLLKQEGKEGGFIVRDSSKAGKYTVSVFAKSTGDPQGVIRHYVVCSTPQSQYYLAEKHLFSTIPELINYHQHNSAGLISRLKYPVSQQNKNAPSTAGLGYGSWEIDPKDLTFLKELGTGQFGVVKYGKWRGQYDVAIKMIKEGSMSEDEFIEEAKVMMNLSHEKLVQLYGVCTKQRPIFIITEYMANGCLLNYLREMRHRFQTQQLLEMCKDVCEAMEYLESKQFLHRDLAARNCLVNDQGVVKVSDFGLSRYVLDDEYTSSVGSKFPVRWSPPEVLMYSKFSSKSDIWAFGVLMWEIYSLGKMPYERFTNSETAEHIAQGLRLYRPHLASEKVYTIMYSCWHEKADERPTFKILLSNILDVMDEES
- assay.text: Btk enzyme activity assay, LANCE TR-FRET
- condition.parameters: 50 pM hBTK, 2 μM biotin-A5-peptide, 25 μM ATP; 60 minute compound & enzyme incubation; read-out: BTK binding IC50
Threshold check on IC50: strictly below 6 nM is Criterion met; on or above 6 nM is Criterion not met.

See these solved cases before continuing.
C[C@@H](O)C(=O)N1C[C@H](c2nn(-c3ccc(Oc4cccc(F)c4)cc3)c3c(N)nccc23)CC[C@@H]1C :: Criterion met
CC1(C(=O)N2CCC[C@@H](c3nn(-c4ccc(Oc5ccccc5)cc4)c4c(N)nccc34)C2)COC1 :: Criterion met
C[C@H]1CC[C@@H](c2nn(-c3ccc(Oc4cccc(F)c4)cc3)c3c(N)nccc23)CN1C(=O)C1(C)COC1 :: Criterion met

Exercise: Determine if Nc1nccc2c([C@@H]3CCCN(C(=O)C4CC4(F)F)C3)nn(-c3ccc(Oc4ccccc4)cc3)c12 (some centres unmarked) shows IC50 strictly lower than 6 nM.
Key: Criterion not met

Exercise: Bench note: check whether CC1(C(=O)N2CCC[C@@H](c3nn(-c4ccc(Oc5ccc(F)cc5)cc4)c4c(N)nccc34)C2)COC1 shows IC50 below 6 nM
Key: Criterion not met
